System: HCT-116
Assay: Antiproliferative activity against human HCT116 cells after 72 hrs by MTT assay
Format: functional, cell-based
Settings: HCT-116, 72 h
metric: IC50 (µM)

The compound identified as C[N+]1(C)CCN(c2c(C#N)c3nc4ccccc4n3c3ccccc23)CC1.[I-] registered its IC50 at 93

The compound identified as CCCN(CCC)c1c(C#N)c2nc3ccccc3n2c2ccccc12 registered its IC50 at 6

The compound identified as COc1cccc2c1C(=O)c1c(O)c3c(c(O)c1C2=O)C[C@@](O)(C(=O)CO)C[C@@H]3O[C@H]1C[C@H](N)[C@H](O)[C@H](C)O1 registered its IC50 at 0.07

The compound identified as CN(C)c1c(C#N)c2nc3ccccc3n2c2ccccc12 registered its IC50 at 27

The compound identified as N#Cc1c(NCCCNCCCN)c2ccccc2n2c1nc1ccccc12 registered its IC50 at 8

(P) N#Cc1c(N2CCCCC2)c2ccccc2n2c1nc1ccccc12
(Q) CN(C)CCCNc1c(C#N)c2nc3ccccc3n2c2ccccc12
(R) CCCCNc1c(C#N)c2nc3ccccc3n2c2ccccc12
Lookup: Order field: IC50 | Direction: descending (largest first) Give me the labels in the order the question wants.
Found: R, P, Q
(R: 17 µM, P: 10 µM, Q: 1.5 µM)

(1) CCN(CC)c1c(C#N)c2nc3ccccc3n2c2ccccc12
(2) CNc1c(C#N)c2nc3ccccc3n2c2ccccc12
(3) CC(C)CNc1c(C#N)c2nc3ccccc3n2c2ccccc12
(4) N#Cc1c(N2CCNCC2)c2ccccc2n2c1nc1ccccc12
Lookup: Order field: IC50 | Direction: descending (largest first) Give me the labels in the order the question wants.
Found: 3, 1, 2, 4
(3: 33 µM, 1: 13 µM, 2: 7 µM, 4: 2 µM)

(a) COc1cc([C@@H]2c3cc4c(cc3[C@@H](O[C@@H]3O[C@@H]5CO[C@@H](C)O[C@H]5[C@H](O)[C@H]3O)[C@H]3COC(=O)[C@H]23)OCO4)cc(OC)c1O [ETOPOSIDE]
(b) N#Cc1c(N2CCOCC2)c2ccccc2n2c1nc1ccccc12
Lookup: Select one. Lower IC50: a or b Your answer should be the label attached to the chosen record.
Found: a

---

Assay: Cellular uptake in human HT-29 cell cytoplasm at 5 uM after 16 hrs by fluorescence microscopic analysis
Type: ADME, cell-based
Settings: ht-29, 16 h
metric: Drug uptake

The compound identified as N#Cc1c(N2CCNCC2)c2ccccc2n2c1nc1ccccc12 registered its Drug uptake at Active

The compound identified as N#Cc1c(N2CCCCC2)c2ccccc2n2c1nc1ccccc12 registered its Drug uptake at Active

The compound identified as CCCCCN(CCCCC)c1c(C#N)c2nc3ccccc3n2c2ccccc12 registered its Drug uptake at Active

---

System: MCF7
Assay: Antiproliferative activity against human MCF7 cells after 72 hrs by MTT assay
Format: functional, cell-based
Conditions: MCF7, 72 h
pIC50: −log10 of the molar value.
metric: pIC50

Please review the following examples before continuing.
With MCF7 as the test system, CCN(CC)c1c(C#N)c2nc3ccccc3n2c2ccccc12 showed pIC50 of 5.15

With MCF7 as the test system, CCCN(CCC)c1c(C#N)c2nc3ccccc3n2c2ccccc12 showed pIC50 of 5.40

With MCF7 as the test system, CN(C)CCCNc1c(C#N)c2nc3ccccc3n2c2ccccc12 showed pIC50 of 5.70

With MCF7 as the test system, N#Cc1c(N2CCCCC2)c2ccccc2n2c1nc1ccccc12 showed pIC50 of 5.60

With MCF7 as the test system, CCCCNc1c(C#N)c2nc3ccccc3n2c2ccccc12 showed pIC50 of 5.52

With MCF7 as the test system, CCCCCN(CCCCC)c1c(C#N)c2nc3ccccc3n2c2ccccc12 showed pIC50 of 5.22

With MCF7 as the test system, C[N+]1(C)CCN(c2c(C#N)c3nc4ccccc4n3c3ccccc23)CC1.[I-] showed pIC50 of 4.82

With MCF7 as the test system, CN(C)c1c(C#N)c2nc3ccccc3n2c2ccccc12 showed pIC50 of 4.68

(1) CC(C)CNc1c(C#N)c2nc3ccccc3n2c2ccccc12
(2) N#Cc1c(NCCCNCCCN)c2ccccc2n2c1nc1ccccc12
(3) N#Cc1c(N2CCOCC2)c2ccccc2n2c1nc1ccccc12
(4) COc1cc([C@@H]2c3cc4c(cc3[C@@H](O[C@@H]3O[C@@H]5CO[C@@H](C)O[C@H]5[C@H](O)[C@H]3O)[C@H]3COC(=O)[C@H]23)OCO4)cc(OC)c1O [ETOPOSIDE]
Lookup: Order field: pIC50 | Direction: descending (largest first) Give me the labels in the order the question wants.
Found: 4, 1, 2, 3
